- PROTOCOL DESCRIPTION: qHTS of pediatric cancer cell lines to identify multiple opportunities for drug repurposing: Primary screen for SK-N-SH cells (AID 1347098); further: nearly all actives have a fitted effect of over 65% in size
- PROTOCOL CONDITIONS: SK-N-SH viability, CellTiter-Glo luminescence, 48 h; series mostly up to 57 µM
Records with an inconclusive call do not appear. The source made the active and inactive calls. The call rests on the fitted dose curve; in most records, active means well fitted cell-killing curve with a large enough effect; inconclusive means small, poorly fitted or top-dose-only effect; inactive means no such curve, though single readings can be large or run the other way.
Labels: label 1 for active, label 0 for inactive

>  <COMPOUND>
CCN(CC)CCNC(=O)c1ccc(N)cc1

>  <ASSIGNED CLASS>
label 0

$$$$
>  <COMPOUND>
Cn1c(N2CCCCS2(=O)=O)nc(C(=O)NCc2ccc(F)cc2)c(O)c1=O

>  <ASSIGNED CLASS>
label 0

$$$$
>  <COMPOUND>
CCOC(=O)O[C@]1(C(=O)OCCl)CC[C@@H]2[C@H]3CCC4=CC(=O)C=C[C@]4(C)[C@@H]3[C@@H](O)C[C@@]21C

>  <ASSIGNED CLASS>
label 0

$$$$
>  <COMPOUND>
Nc1ncnc2c1ncn2[C@@H]1O[C@@H](CO)[C@H](O)[C@H]1O

>  <ASSIGNED CLASS>
label 0

$$$$
>  <COMPOUND>
CCc1ccc(OCc2ccccc2C(=O)Nc2ccc3nc(C)cc(N)c3c2)cc1

>  <ASSIGNED CLASS>
label 1

$$$$
>  <COMPOUND>
N#CC1(c2ccc(NC(=O)c3cccnc3NCc3ccncc3)cc2)CCCC1

>  <ASSIGNED CLASS>
label 0

$$$$
>  <COMPOUND>
CS(=O)(=O)N(Cc1ccco1)CC(O)Cn1c2ccccc2c2ccccc21 (stereo not given)

>  <ASSIGNED CLASS>
label 0

$$$$
>  <COMPOUND>
CO[C@H]1C[C@@H]2CC[C@@H](C)[C@@](O)(O2)C(=O)C(=O)N2CCCC[C@@H]2C(=O)O[C@H]([C@H](C)C[C@@H]2CC[C@H](OC(=O)C(C)(CO)CO)[C@H](OC)C2)CC(=O)[C@H](C)C=C(C)[C@@H](O)[C@@H](OC)C(=O)[C@H](C)C[C@H](C)C=CC=CC=C1C

>  <ASSIGNED CLASS>
label 0

$$$$
>  <COMPOUND>
CN(C[C@@H]1COCCO1)S(=O)(=O)Nc1ccc2ccc3ncc(-c4cnn(C)c4)cc3c(=O)c2c1

>  <ASSIGNED CLASS>
label 1

$$$$
>  <COMPOUND>
CO[C@H]1C[C@@H]2CC[C@@H](C)[C@@](O)(O2)C(=O)C(=O)N2CCCC[C@@H]2C(=O)O[C@H]([C@@H](C)C[C@@H]2CC[C@H](O)[C@H](OC)C2)CC(=O)[C@H](C)C=C(C)[C@@H](O)[C@@H](OC)C(=O)[C@H](C)C[C@H](C)C=CC=CC=C1C

>  <ASSIGNED CLASS>
label 0

$$$$
>  <COMPOUND>
CCC(=O)O[C@]1(C(=O)CO)CC[C@H]2[C@@H]3CCC4=CC(=O)CC[C@]4(C)[C@@H]3CC[C@@]21C

>  <ASSIGNED CLASS>
label 0

$$$$
>  <COMPOUND>
CC1CCC(C(=O)N(c2cc(C#CC(C)(C)C)sc2C(=O)O)C2CCC(O)CC2)CC1 (stereo not given)

>  <ASSIGNED CLASS>
label 0

$$$$
>  <COMPOUND>
COc1ccc(-c2nc(N3CCOCC3)c3sc(CN(C)c4ncc(C(=O)NO)cn4)cc3n2)cn1

>  <ASSIGNED CLASS>
label 1

$$$$
>  <COMPOUND>
NC1CCC(Nc2nc(Nc3ccc(C(=O)N4CCCCC4)cc3)c3ncn(-c4cccc(F)c4)c3n2)CC1 (stereo not given)

>  <ASSIGNED CLASS>
label 0

$$$$
>  <COMPOUND>
O=c1c(-c2ccc(O)cc2)coc2cc(OC3O[C@H](CO)[C@H](O)[C@H](O)[C@H]3O)cc(O)c12 (stereo not given in full)

>  <ASSIGNED CLASS>
label 1

$$$$
